Data provenance is ChEMBL document CHEMBL5316370.

- Tested on: RAW264.7
- method_description: Anti-inflammatory activity against IL-4/IL-13 stimulated mouse RAW264.7 cells assessed as inhibition of IL-10 secretion at 20 uM incubated for 48 hrs by ELISA method
- Assay type: functional, cell-based
Active and inactive are the calls of the source. The calls are words filed in the database; no cut-off is given here.
measurement_kind: inhibition

INSERT INTO results (compound, system, test_value) VALUES
  ('C/C(=C\CO)CC[C@@]1(C)[C@H](C)CC[C@@]2(C)C(CO)=CCC[C@H]12', 'RAW264.7', 'Active'),
  ('C[C@@H]1CC[C@]2(C)[C@H](CC[C@@H](O)[C@]2(C)O)[C@@]1(C)CCc1ccoc1', 'RAW264.7', 'Active'),
  ('C=C1[C@H](O)CC[C@@H]2[C@@](C)(C[C@H](O)c3ccoc3)[C@H](C)CC[C@@]12C', 'RAW264.7', 'Active'),
  ('C[C@]1(C[C@H](O)c2ccoc2)[C@H](CO)CC[C@]2(C)[C@@H]1CC[C@@H](O)[C@]2(C)O', 'RAW264.7', 'Active'),
  ('CO[C@@]1(C)[C@H](O)CC[C@@H]2[C@@](C)(C[C@H](O)c3ccoc3)[C@H](C)CC[C@]21C', 'RAW264.7', 'Active'),
  ('CC(=O)O[C@@H]1[C@@H](c2ccoc2)OC(=O)[C@@H]2CC[C@@]3(C)C(C)C(=O)CC[C@@H]3[C@@]12C (stereo partly drawn)', 'RAW264.7', 'Active'),
  ('C[C@]12C[C@@H](c3ccoc3)OC(=O)[C@@H]1CC[C@]1(C)[C@@H]2CCC(=O)[C@@]1(C)O', 'RAW264.7', 'Active'),
  ('COC(=O)[C@@H]1CC[C@]2(C)[C@H](CC[C@@H](O)[C@]2(C)OC)[C@@]1(C)CC(=O)c1ccoc1', 'RAW264.7', 'Active'),
  ('C[C@]12C[C@@H](c3ccoc3)OC(=O)[C@@H]1CC[C@]1(C)[C@@H]2CC[C@H](Cl)[C@@]1(C)O', 'RAW264.7', 'Active'),
  ('C[C@]1(CCc2ccoc2)[C@H](CO)CC[C@]2(C)[C@@H]1CC[C@@H](O)[C@]2(C)O', 'RAW264.7', 'Active'),
  ('CC1=CC(=O)O[C@H]1C[C@@]1(C)[C@H](C)CC[C@@]2(C)C(C)=CCC[C@H]12', 'RAW264.7', 'Active'),
  ('COC(=O)[C@@H]1CC[C@]2(C)[C@H](CC[C@@H](O)[C@]2(C)O)[C@@]1(C)CC(=O)c1ccoc1', 'RAW264.7', 'Active'),
  ('CCO[C@@]1(C)[C@H](O)CC[C@@H]2[C@@](C)(CC(=O)c3ccoc3)[C@H](C)CC[C@]21C', 'RAW264.7', 'Active'),
  ('C[C@]12C[C@@H](c3ccoc3)OC(=O)[C@@H]1CC[C@]1(C)[C@@H]2CCC(=O)[C@]1(C)O', 'RAW264.7', 'Active'),
  ('CC1=CC(=O)O[C@@H]1C[C@@]1(C)[C@H](C)CC[C@@]2(C)C(C)=CC(=O)C[C@H]12', 'RAW264.7', 'Active'),
  ('CC(=O)O[C@@H]1[C@@H](c2ccoc2)OC(=O)[C@@H]2CC[C@]3(C)[C@H](CC[C@@H](O)[C@]3(C)O)[C@@]12C', 'RAW264.7', 'Active'),
  ('CO[C@@]1(C)[C@H](O)CC[C@@H]2[C@@]3(C)[C@H](OC(=O)c4ccccc4)[C@@H](c4ccoc4)OC(=O)[C@@H]3CC[C@]21C', 'RAW264.7', 'Active'),
  ('C[C@]12C(=CC[C@]3(C)[C@@H]1CC[C@@H](O)[C@]3(C)O)C(=O)O[C@H](c1ccoc1)[C@H]2OC(=O)c1ccccc1', 'RAW264.7', 'Active');

---

- Tested on: RAW264.7
- method_description: Anti-inflammatory activity against IL-4/IL-13 stimulated mouse RAW264.7 cells assessed as inhibition of IL-10 secretion at 20 uM incubated for 48 hrs by ELISA method
- Type: functional, cell-based
The source made the active and inactive calls. The calls are words filed in the database; no cut-off is given here.
measurement_kind: inhibition

INSERT INTO results (chemical_smiles, system, test_value) VALUES
  ('CC1=CC(=O)O[C@@H]1C[C@@]1(C)[C@H](C)CC[C@@]2(C)C(C)=CCC[C@H]12', 'RAW264.7', 'Active'),
  ('C[C@@H]1CC[C@]2(C)[C@H](CCC(=O)[C@H]2C)[C@@]1(C)CC(=O)c1ccoc1', 'RAW264.7', 'Active'),
  ('CC1=CCC[C@@H]2[C@@]3(C)C[C@@H](c4ccoc4)OC(=O)[C@@H]3CC[C@@]12C', 'RAW264.7', 'Active'),
  ('C=C1[C@H](O)CC[C@@H]2[C@@](C)(CC(=O)c3ccoc3)[C@H](C)CC[C@@]12C', 'RAW264.7', 'Active'),
  ('C[C@]12[C@H](OC(=O)c3ccccc3)[C@@H](c3ccoc3)OC(=O)[C@@H]1CC[C@]1(C)[C@@H]2CC[C@@H](O)[C@]1(C)O', 'RAW264.7', 'Active'),
  ('C[C@@H]1CC[C@]2(C)[C@H](CC[C@@H](O)[C@]2(C)O)[C@@]1(C)CC(=O)c1ccoc1', 'RAW264.7', 'Active'),
  ('C[C@@H]1C(=O)CC[C@@H]2[C@@](C)(CCc3ccoc3)[C@H](CO)CC[C@]21C', 'RAW264.7', 'Active'),
  ('C[C@@H]1CC[C@]2(C)[C@H](CCC(=O)[C@H]2C)[C@@]1(C)CCc1ccoc1', 'RAW264.7', 'Active');
